These measurements were taken from PubChem BioAssay AID652212.

# Target System: Potassium channel subfamily K member 3 (Homo sapiens) (UniProt O14649)
# Sequence (O14649 whole entry, looked up): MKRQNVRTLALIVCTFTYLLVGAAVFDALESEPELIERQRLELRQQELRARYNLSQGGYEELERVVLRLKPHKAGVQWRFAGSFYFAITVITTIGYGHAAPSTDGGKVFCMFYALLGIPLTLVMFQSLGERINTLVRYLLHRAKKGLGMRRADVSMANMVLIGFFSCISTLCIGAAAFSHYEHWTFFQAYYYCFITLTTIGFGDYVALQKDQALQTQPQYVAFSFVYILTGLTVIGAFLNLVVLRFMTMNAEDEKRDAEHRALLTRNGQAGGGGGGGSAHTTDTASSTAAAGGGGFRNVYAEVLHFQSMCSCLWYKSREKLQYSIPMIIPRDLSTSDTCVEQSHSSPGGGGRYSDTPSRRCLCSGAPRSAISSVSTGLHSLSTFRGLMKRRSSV
Measured IC50, listed per entry.

Molecule Smiles | IC50
O=C(Nc1cccc(NC(=O)c2ccccn2)c1)c1ccccc1 | 86 nM

Item COc1ccccc1C(=O)Nc1cccc(NC(=O)c2ccccc2OC(F)(F)F)c1 with Potassium channel subfamily K member 3 (Homo sapiens) (UniProt O14649) - IC50?
4 nM

Item Cc1cccc(C(=O)Nc2cccc(NC(=O)c3ccccc3C)c2)c1 with Potassium channel subfamily K member 3 (Homo sapiens) (UniProt O14649) - IC50?
91 nM

* * *

pIC50: −log10 of the molar value.
Potassium channel subfamily K member 3 (Homo sapiens) data, read-out pIC50
Reported Metric: pIC50

The examples below pair each entry with its known result.
Molecule Smiles | pIC50
O=C(Nc1cccc(NC(=O)c2cccnc2)c1)c1ccccc1 | 5.89
Cc1cccc(C(=O)Nc2cccc(NC(=O)c3ccccc3C(C)C)c2)c1 | 6.48

[1] O=C(Nc1cccc(NC(=O)c2ccccc2Cl)c1)c1ccccc1
[2] CN(C)c1ccc(C(=O)Nc2cccc(NC(=O)c3ccccc3)c2)cc1
# return whichever of 1 and 2 has the smaller pIC50 Refer to your chosen entry by its label in the reply.
1
